# ASSAY_INFO: pKa measurement (Sirius GLpKa)
# Type: physicochemical
# CONDITION_NOTES: ionic strength adjusted (0.10 M KCl) water; Method B: potentiometric method; read-out: pKa (measured using Method B)

{"COMPOUND": "Cc1c(OC2CCN(C[C@H](O)CNC(=O)c3sc(=O)[nH]c3C(F)(F)F)CC2)ccc(C#N)c1Cl [Example 40]", "pKa": 4.7}
{"COMPOUND": "O=C(NC[C@@H](O)CN1CCC(Oc2ccc(Cl)c(Cl)c2)CC1)c1sc(=O)[nH]c1CC(F)(F)F [Example 33]", "pKa": 6.6}
{"COMPOUND": "Cc1[nH]nnc1C(=O)NC[C@@H](O)CN1CCC(Oc2ccc(Cl)c(Cl)c2)CC1 [Example 8]", "pKa": 7.5}
{"COMPOUND": "O=C(NC[C@@H](O)CN1CCC(Oc2ccc(Cl)c(Cl)c2)CC1)c1nn[nH]c1SCC(F)(F)F [Example 19]", "pKa": 5.2}

---

Listed next: entries and their corresponding Ki.
# TARGET_OR_TEST_SYSTEM: human H1 receptor (Homo sapiens)
# Construct: purchased Euroscreen SA, Brussels, Belgium ES-390-M; host or cells: recombinant CHO-K1 cells (membranes)
# ASSAY_INFO: Histamine H1 receptor binding, competition displacement of [3H]-pyrilamine
# CONDITION_NOTES: 1 nM [3H]-pyrilamine, membranes from recombinant CHO-K1 cells expressing the human H1 receptor, 1 hour at room temperature; read-out: H1 pKi (converted)

{"SMILES_STRUCTURE": "Cc1[nH]nnc1C(=O)NC[C@@H](O)CN1CCC(Oc2ccc(Cl)c(Cl)c2)CC1", "TARGET_OR_TEST_SYSTEM": "human H1 receptor (Homo sapiens)", "OUTPUT_UNIT": "nM", "Ki": 15.8}
{"SMILES_STRUCTURE": "N#Cc1cc(C(=O)NC[C@@H](O)CN2CCC(Oc3ccc(Cl)c(Cl)c3)CC2)c(C2CC2)[nH]c1=O", "TARGET_OR_TEST_SYSTEM": "human H1 receptor (Homo sapiens)", "OUTPUT_UNIT": "nM", "Ki": 25.1}
{"SMILES_STRUCTURE": "CC(C)c1[nH]nnc1C(=O)NC[C@@H](O)CN1CCC(Oc2ccc(C#N)c(Cl)c2)CC1", "TARGET_OR_TEST_SYSTEM": "human H1 receptor (Homo sapiens)", "OUTPUT_UNIT": "nM", "Ki": 158}
{"SMILES_STRUCTURE": "CN(C[C@@H](O)CN1CCC(Oc2ccc(Cl)c(Cl)c2)CC1)C(=O)c1sc(=O)[nH]c1C(F)(F)F", "TARGET_OR_TEST_SYSTEM": "human H1 receptor (Homo sapiens)", "OUTPUT_UNIT": "nM", "Ki": 126}
{"SMILES_STRUCTURE": "Cc1c(OC2CCN(C[C@H](O)CNC(=O)c3ccc(Cl)c(OCC(=O)O)c3)CC2)ccc(Cl)c1Cl", "TARGET_OR_TEST_SYSTEM": "human H1 receptor (Homo sapiens)", "OUTPUT_UNIT": "nM", "Ki": 63.1}
{"SMILES_STRUCTURE": "N#Cc1cc(C(=O)NC[C@@H](O)CN2CCC(Oc3ccc(Cl)c(Cl)c3)CC2)c(C(F)(F)F)[nH]c1=O", "TARGET_OR_TEST_SYSTEM": "human H1 receptor (Homo sapiens)", "OUTPUT_UNIT": "nM", "Ki": 126}

---

# ASSAY_INFO: pKa measurement (Sirius GLpKa)
# Assay type: physicochemical
# CONDITION_NOTES: ionic strength adjusted (0.10 M KCl) water; Method B: potentiometric method; read-out: pKa (measured using Method B)
Note to self: values exactly at 4 are MET. So pKa at or above 4 is MET, below is NOT MET.

{"SMILES_STRUCTURE": "O=C(NC[C@@H](O)CN1CCC(Oc2ccc(Cl)c(Cl)c2)CC1)c1ccc(=O)[nH]c1C(F)(F)F", "DISCRETE_LABEL": "MET"}
{"SMILES_STRUCTURE": "O=C(NC[C@@H](O)CN1CCC(Oc2ccc(Cl)c(Cl)c2)CC1)c1sc(=O)[nH]c1C(F)(F)F", "DISCRETE_LABEL": "MET"}
{"SMILES_STRUCTURE": "Cc1c(Cl)ccc(OC2CCN(C[C@H](O)CNC(=O)c3cc(C#N)c(=O)[nH]c3C(F)(F)F)CC2)c1Cl", "DISCRETE_LABEL": "NOT MET"}
{"SMILES_STRUCTURE": "CS(=O)(=O)Nc1nc(C(F)(F)F)c(C(=O)NC[C@@H](O)CN2CCC(Oc3ccc(Cl)c(Cl)c3)CC2)s1", "DISCRETE_LABEL": "MET"}
{"SMILES_STRUCTURE": "CSc1[nH]nnc1C(=O)NC[C@@H](O)CN1CCC(Oc2ccc(Cl)c(Cl)c2)CC1", "DISCRETE_LABEL": "MET"}
{"SMILES_STRUCTURE": "N#Cc1cc(C(=O)NC[C@@H](O)CN2CCC(Oc3ccc(Cl)c(Cl)c3)CC2)c(-c2ccccc2)[nH]c1=O", "DISCRETE_LABEL": "NOT MET"}

---

Listed next: entries and their corresponding pKa.
# ASSAY_INFO: pKa measurement (Sirius GLpKa)
# Assay type: physicochemical
# CONDITION_NOTES: method not stated; read-out: measured pKa
PARAMETER: pKa

{"COMPOUND": "Cc1c(OC2CCN(C[C@H](O)CNC(=O)c3ccc(Cl)c(C(=O)O)c3)CC2)ccc(Cl)c1Cl [Example 42]", "PARAMETER": "pKa", "VALUE_REPORTED": 2.3}
{"COMPOUND": "Cc1c(OC2CCN(C[C@H](O)CNC(=O)COc3cccc(C(=O)O)c3)CC2)ccc(Cl)c1Cl [Example 46]", "PARAMETER": "pKa", "VALUE_REPORTED": 2.6}

---

# TARGET_OR_TEST_SYSTEM: human H1 receptor (Homo sapiens, UniProt P35367)
# Construct: purchased Euroscreen SA, Brussels, Belgium ES-390-M; host or cells: recombinant CHO-K1 cells (membranes)
# Sequence (P35367 whole entry): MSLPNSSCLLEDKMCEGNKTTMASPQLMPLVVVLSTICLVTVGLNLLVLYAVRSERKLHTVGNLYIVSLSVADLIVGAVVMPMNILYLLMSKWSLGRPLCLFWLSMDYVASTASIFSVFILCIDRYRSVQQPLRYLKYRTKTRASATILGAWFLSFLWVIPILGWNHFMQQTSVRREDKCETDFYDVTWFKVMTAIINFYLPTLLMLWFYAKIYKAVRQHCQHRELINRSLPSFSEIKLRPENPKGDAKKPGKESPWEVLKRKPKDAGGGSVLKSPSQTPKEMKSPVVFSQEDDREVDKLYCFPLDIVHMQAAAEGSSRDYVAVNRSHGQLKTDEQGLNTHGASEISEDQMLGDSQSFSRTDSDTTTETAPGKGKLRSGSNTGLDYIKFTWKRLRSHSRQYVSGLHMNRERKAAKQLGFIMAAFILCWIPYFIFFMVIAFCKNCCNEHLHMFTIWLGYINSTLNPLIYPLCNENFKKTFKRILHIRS
# ASSAY_INFO: Histamine H1 receptor binding, competition displacement of [3H]-pyrilamine
# CONDITION_NOTES: 1 nM [3H]-pyrilamine, membranes from recombinant CHO-K1 cells expressing the human H1 receptor, 1 hour at room temperature; read-out: H1 pKi (converted)
Listed next: entries and their corresponding Ki.
PARAMETER: Ki (nM)

{"COMPOUND": "Cc1c(OC2CCN(C[C@H](O)CNC(=O)c3ccc(Cl)c(C(=O)O)c3)CC2)ccc(Cl)c1Cl [Example 42]", "OUTPUT_UNIT": "nM", "VALUE_REPORTED": 126}
{"COMPOUND": "O=C(NC[C@@H](O)CN1CCC(Oc2ccc(Cl)c(Cl)c2)CC1)c1oc(=O)[nH]c1C(F)(F)F [Example 37]", "OUTPUT_UNIT": "nM", "VALUE_REPORTED": 200}
{"COMPOUND": "O=C(NC[C@H](O)CN1CCC(Oc2ccc(Cl)c(Cl)c2)CC1)c1sc(=O)[nH]c1C(F)(F)F [Example 28]", "OUTPUT_UNIT": "nM", "VALUE_REPORTED": 39.8}
{"COMPOUND": "Cc1c(OC2CCN(C[C@H](O)CNC(=O)COc3cc(C(=O)O)ccc3Cl)CC2)ccc(Cl)c1Cl [Example 44]", "OUTPUT_UNIT": "nM", "VALUE_REPORTED": 12.6}

---

# ASSAY_INFO: pKa measurement (Sirius GLpKa)
# Format: physicochemical
# CONDITION_NOTES: ionic strength adjusted (0.10 M KCl) water; Method B: potentiometric method; read-out: pKa (measured using Method B)
Listed next: entries and their corresponding pKa.
PARAMETER: pKa

{"SMILES_STRUCTURE": "O=C(NC[C@@H](O)CN1CCC(Oc2ccc(Cl)c(Cl)c2)CC1)c1nn[nH]c1-c1ccc(F)cc1", "PARAMETER": "pKa", "VALUE_REPORTED": 6.1}
{"SMILES_STRUCTURE": "CS(=O)(=O)Nc1cc(C(F)(F)F)c(C(=O)NC[C@@H](O)CN2CCC(Oc3ccc(Cl)c(Cl)c3)CC2)cn1", "PARAMETER": "pKa", "VALUE_REPORTED": 5.3}
{"SMILES_STRUCTURE": "N#Cc1cc(C(=O)NC[C@@H](O)CN2CCC(Oc3ccc(Cl)c(Cl)c3)CC2)c(C2CC2)[nH]c1=O", "PARAMETER": "pKa", "VALUE_REPORTED": 3.8}
{"SMILES_STRUCTURE": "O=C(NC[C@@H](O)CN1CCC(Oc2ccc(Cl)c(Cl)c2)CC1)c1sc(=O)[nH]c1-c1ccc(F)cc1", "PARAMETER": "pKa", "VALUE_REPORTED": 7.4}
